src = the supplement of paper PMC10567573

B1: SPSB4 (parent)
chain: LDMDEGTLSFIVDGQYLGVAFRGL

Variants of: B1
procedure_details: protein stability index of a GFP-peptide fusion (GPS, HEK-293T) (PSI 1-6); higher = more stable;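 also: lentivirally expressed fusions sorted by FACS into six bins by GFP to DsRed ratio, PSI derived from sequencing read proportions per bin multiplied by bin number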
conditions_used: c terminus: a fixed tail appended

mutation_code: F10C
protein stability index: 2.49
//
mutation_code: D4V
protein stability index: 2.95
//
mutation_code: G14T
protein stability index: 3.42
//
mutation_code: G14I
protein stability index: 3.85
//
mutation_code: D13I
protein stability index: 2.6
//
mutation_code: G6E
protein stability index: 1.98
//
mutation_code: V19P
protein stability index: 2.43
//
mutation_code: G18A
protein stability index: 2.82
//
mutation_code: V12T
protein stability index: 2.35
//
mutation_code: A20H
protein stability index: 1.89
//
mutation_code: S9C
protein stability index: 2.76
//
mutation_code: R22D
protein stability index: 2.41
//
mutation_code: F10V
protein stability index: 2.38
//
mutation_code: R22Q
protein stability index: 2.1
//
mutation_code: L24P
protein stability index: 2.78
//
mutation_code: F21C
protein stability index: 1.62
//
mutation_code: D2E
protein stability index: 2.68
//
mutation_code: I11T
protein stability index: 2.74
//
mutation_code: I11A
protein stability index: 1.72
//
mutation_code: Y16V
protein stability index: 3.47
//
mutation_code: V12P
protein stability index: 1.7
//
mutation_code: D4G
protein stability index: 2.73
//
mutation_code: G14K
protein stability index: 2.44
//
mutation_code: G18T
protein stability index: 3.06
//
mutation_code: L24C
protein stability index: 2.43
//
mutation_code: E5L
protein stability index: 2.51
//
mutation_code: G14F
protein stability index: 2.69
//
mutation_code: S9E
protein stability index: 2.58
//
mutation_code: I11D
protein stability index: 1.68
//
mutation_code: L17N
protein stability index: 1.51
//
mutation_code: I11P
protein stability index: 2.25
//
mutation_code: Y16P
protein stability index: 2.27
//
mutation_code: F21K
protein stability index: 2.39
//
mutation_code: G14Q
protein stability index: 1.5
//
mutation_code: L8V
protein stability index: 4.24
//
mutation_code: L8M
protein stability index: 2.72
//
mutation_code: G14H
protein stability index: 3.15
//
mutation_code: L8P
protein stability index: 1.88
//
mutation_code: S9L
protein stability index: 1.75
//
mutation_code: A20N
protein stability index: 1.68
